# Assayed target: recombinant human EP-2 receptor (Homo sapiens, UniProt P43116)
# Construct: stably transfected with full length cDNA encoding human Prostaglandin E2
# Sequence (P43116 whole entry): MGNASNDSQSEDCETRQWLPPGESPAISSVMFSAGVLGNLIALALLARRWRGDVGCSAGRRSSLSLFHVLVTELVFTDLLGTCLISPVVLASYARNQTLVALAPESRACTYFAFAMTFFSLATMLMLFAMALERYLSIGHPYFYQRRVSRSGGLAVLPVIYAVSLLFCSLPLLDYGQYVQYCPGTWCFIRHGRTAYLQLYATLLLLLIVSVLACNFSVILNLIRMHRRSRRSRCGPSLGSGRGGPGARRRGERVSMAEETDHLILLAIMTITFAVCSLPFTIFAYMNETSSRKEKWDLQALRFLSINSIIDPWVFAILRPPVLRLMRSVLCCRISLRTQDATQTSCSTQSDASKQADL
# Assay explanation: In vitro antagonist potency against recombinant human prostaglandin E2 (EP-2) receptor in CHO cells (cAMP)
# Condition info: CHO cells expressing recombinant human EP-2 receptor, stimulated with PGE2 5 nM; cAMP readout; Ki from IC50 by Cheng-Prusoff; read-out: EP2 Ki
Measured endpoint: log10 of Ki (log10 of the value in nM)

O=C(c1ccccc1)N1CC(Cn2nnc(-c3ccc(Cl)s3)n2)(C(=O)O)C1    1.79
CCC(=O)Nc1ccc(-c2nnn(CC3(C(=O)O)CN(C(=O)c4ccc(F)cc4)C3)n2)cc1    1.01
O=C(c1ccccc1)N1CC(Cn2nnc(-c3c(F)cccc3F)n2)(C(=O)O)C1    2.51
COc1cccc(NC(=O)N2CC(Cn3nnc(-c4cccc(F)c4)n3)(C(=O)O)C2)c1    2.48
Cc1cccc(-c2nnn(CC3(C(=O)O)CN(C(=O)c4ccc(F)cc4)C3)n2)c1    1.17
Cc1ccccc1-c1nnn(CC2(C(=O)O)CN(C(=O)c3ccc(F)cc3)C2)n1    1.89
